Reference for the values: patent US20230148005A1

Could you please report measured IC50 for the items listed next?
- Target Of Assay: EGFR^L858R (Homo sapiens, UniProt P00533, L858R)
- Sequence (P00533 25-1210 L858R): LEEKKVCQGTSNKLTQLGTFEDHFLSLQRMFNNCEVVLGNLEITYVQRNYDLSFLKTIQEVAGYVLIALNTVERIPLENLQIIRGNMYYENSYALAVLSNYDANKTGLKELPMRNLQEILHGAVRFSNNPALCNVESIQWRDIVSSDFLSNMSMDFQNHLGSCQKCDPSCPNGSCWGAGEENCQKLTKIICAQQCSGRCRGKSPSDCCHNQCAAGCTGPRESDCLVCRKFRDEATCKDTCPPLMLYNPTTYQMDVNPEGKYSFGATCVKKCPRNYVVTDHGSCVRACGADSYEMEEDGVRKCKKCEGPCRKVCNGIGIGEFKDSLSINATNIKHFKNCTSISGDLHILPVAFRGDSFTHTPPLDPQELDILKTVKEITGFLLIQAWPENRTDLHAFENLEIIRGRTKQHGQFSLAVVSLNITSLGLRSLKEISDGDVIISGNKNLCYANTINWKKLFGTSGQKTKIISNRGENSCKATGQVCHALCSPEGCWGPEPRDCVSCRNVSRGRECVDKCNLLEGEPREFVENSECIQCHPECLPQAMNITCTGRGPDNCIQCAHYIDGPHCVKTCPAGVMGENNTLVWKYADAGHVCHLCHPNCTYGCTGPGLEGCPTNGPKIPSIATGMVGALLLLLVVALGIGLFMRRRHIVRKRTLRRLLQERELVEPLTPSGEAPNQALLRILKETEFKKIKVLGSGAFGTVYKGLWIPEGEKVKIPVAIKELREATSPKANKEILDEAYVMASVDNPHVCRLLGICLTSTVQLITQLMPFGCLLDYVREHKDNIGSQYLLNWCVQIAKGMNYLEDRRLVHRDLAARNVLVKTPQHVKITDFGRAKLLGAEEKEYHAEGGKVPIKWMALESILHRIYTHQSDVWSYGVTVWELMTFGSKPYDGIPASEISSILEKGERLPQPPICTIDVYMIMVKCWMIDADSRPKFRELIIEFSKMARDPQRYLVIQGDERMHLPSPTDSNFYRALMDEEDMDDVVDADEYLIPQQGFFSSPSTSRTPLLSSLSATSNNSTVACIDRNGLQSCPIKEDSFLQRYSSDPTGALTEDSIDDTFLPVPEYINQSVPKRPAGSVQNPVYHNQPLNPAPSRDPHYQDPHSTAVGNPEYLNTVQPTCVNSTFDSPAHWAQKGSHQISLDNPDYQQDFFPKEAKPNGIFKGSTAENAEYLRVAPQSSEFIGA
- Protocol Description: in vitro kinase assay (HTRF KinEASE-TK kit), L
- Condition Notes: kinase inhibition

Problem: Observed IC50 on EGFR^L858R (Homo sapiens, UniProt P00533, L858R) for C[C@H]1CCOc2c(cnn2C)-c2nccc(n2)Nc2cc3c(cn2)c(-c2cccc(CCN4CCOCC4)c2)nn31 , please.
Result: < 10 nM

Problem: Next up: CC1CCOc2c(cnn2C)-c2nccc(n2)Nc2cc3c(cn2)c(-c2cc(CN4CCN(C)CC4)cn2C)nn31 (stereo not drawn)
Result: 10 to 100 nM

Problem: Next up: C[C@H]1CCOc2c(cnn2C)-c2nccc(n2)Nc2cc3c(cn2)c(-c2ccc(CN4CCOCC4)n2C)nn31
Result: < 10 nM

Problem: Next up: C[C@H]1CCOc2c(cnn2C)-c2nccc(n2)Nc2cc3c(cn2)c(-c2csc(CN4CCN(C)CC4)n2)nn31
Result: < 10 nM

Problem: Next up: C[C@H]1CCOc2c(cnn2C)-c2nccc(n2)Nc2cc3c(cn2)c(-c2ccc(CN4CCN(C5CC5)CC4)n2C)nn31
Result: < 10 nM

Problem: Next up: C[C@H]1CCOc2c(cnn2C)-c2nccc(n2)Nc2cc3c(cn2)c(-c2cc(CN4CCOCC4)n(C)n2)nn31
Result: < 10 nM

Problem: Next up: CC1CCOc2c(cnn2CC2CC2)-c2nccc(n2)Nc2cc3c(cn2)c(N2CCC2)nn31 (stereo not drawn)
Result: 10 to 100 nM

Problem: Next up: Cc1nc(-c2nn3c4cc(ncc24)Nc2ccnc(n2)-c2cnn(C)c2OCC[C@@H]3C)sc1CN(C)C
Result: < 10 nM

Problem: Next up: CC(C)N1CCN(Cc2csc(-c3nn4c5cc(ncc35)Nc3ccnc(n3)-c3cnn(C)c3OCC[C@@H]4C)n2)CC1
Result: 10 to 100 nM

Problem: Next up: CCn1cc(C(=O)N2CCN(C)CC2)cc1-c1nn2c3cc(ncc13)Nc1ccnc(n1)-c1cnn(C)c1OCCC2C (stereo not drawn)
Result: 10 to 100 nM

Problem: Next up: CCn1nccc1-c1nn2c3cc(ncc13)Nc1ccnc(n1)-c1cnn(C)c1OCCCC2C (stereo not drawn)
Result: 10 to 100 nM

Problem: Next up: C[C@H]1CCOc2c(cnn2C)-c2nccc(n2)Nc2cc3c(cn2)c(-c2ccc(CN4CCCC4)n2C)nn31
Result: < 10 nM

Problem: Next up: CC1CCOc2ccncc2-c2nccc(n2)Nc2cc3c(cn2)c(N2CCC2)nn31 (stereo not drawn)
Result: < 10 nM

Problem: Next up: C[C@H]1CCOc2c(cnn2C)-c2nccc(n2)Nc2cc3c(cn2)c(N2CC[C@@H](N(C)C)C2)nn31
Result: < 10 nM

Problem: Next up: C[C@H]1CCOc2c(cnn2C)-c2nccc(n2)Nc2cc3c(cn2)c(-c2ccc(F)c(OCCN4CCOCC4)c2)nn31
Result: < 10 nM

* * *

- Test system: Ba/F3 Parental
- Protocol Description: Ba/F3 viability assay (CellTiter-Glo), parental
- Format: cell-based
- Condition Notes: Mus musculus, BaF3, anti-proliferation
- Source text: Inhibition of cell proliferation can be studied using Ba/F3 viability assays, including the Promega CellTiter-Glo cell viability assay. This assay can be used to study the effect of compounds described herein in the following assays: (1) Ba/F3 Parental; (2) Ba/F3 EGFR-Del19/T790M; (3); Ba/F3 EGFR-Del19/C797S; and (4) Ba/F3 EGFR-Del19/T790M/C797S.
pIC50: −log10 of the molar value.
Could you please report measured pIC50 for the items listed next?

Problem: Request the reported pIC50 associated with C[C@H]1CCCOc2c(cnn2C)-c2nccc(n2)Nc2cc3c(cn2)c(N2CCC2)nn31
Result: 6.00 to 7.00

Problem: Next up: CC1CCOc2c(cnn2C)-c2nccc(n2)Nc2cc3c(cn2)c(N2CC(C(=O)N(C)C)C2)nn31 (stereo not shown)
Result: 6.00 to 7.00

Problem: Next up: C[C@H]1CCOc2c(cnn2C)-c2nccc(n2)Nc2cc3c(cn2)c(-c2cccc(N4CCC(N5CCN(C)CC5)CC4)c2)nn31
Result: 6.00 to 7.00

Problem: Next up: CC1COc2c(cnn2C)-c2nccc(n2)Nc2cc3c(cn2)c(N2CCC2)nn3C1 (stereo not shown)
Result: 6.00 to 7.00

Problem: Next up: CCn1cc(-c2nn3c4cc(ncc24)Nc2ccnc(n2)-c2cnn(C)c2OCCC3C)cc1CN1CCN(C(C)C)CC1 (stereo not shown)
Result: 7.00 to 8.00

Problem: Next up: C[C@H]1CCOc2c(cnn2C)-c2nccc(n2)Nc2cc3c(cn2)c(-c2cn(C)cn2)nn31
Result: 6.00 to 7.00

Problem: Next up: C[C@H]1CCOc2c(cnn2C)-c2nccc(n2)Nc2cc3c(cn2)c(-c2cccc(CN(C)C)c2)nn31
Result: 6.00 to 7.00

Problem: Next up: C[C@H]1CCOc2c(cnn2C)-c2nccc(n2)Nc2cc3c(cn2)c(-c2nn(C)cc2CCN(C)C)nn31
Result: ≤ 6.00

Problem: Next up: C[C@H]1CCOc2c(cnn2C)-c2nccc(n2)Nc2cc3c(cn2)c(-c2cccc(OCCN4CCOCC4)c2)nn31
Result: 6.00 to 7.00

Problem: Next up: CCn1cc(C(=O)N2CCN(C)CC2)cc1-c1nn2c3cc(ncc13)Nc1ccnc(n1)-c1cnn(C)c1OCCC2C (stereo not shown)
Result: 6.00 to 7.00

Problem: Next up: C[C@H]1CCOc2c(cnn2C)-c2nccc(n2)Nc2cc3c(cn2)c(-c2ccc(CN4CCNCC4)n2C)nn31
Result: 6.00 to 7.00

Problem: Next up: CCn1nccc1-c1nn2c3cc(ncc13)Nc1ccnc(n1)-c1cnn(C)c1OCCCC2C (stereo not shown)
Result: ≤ 6.00

Problem: Next up: Cc1cc(OCCN(C)C)cc(-c2nn3c4cc(ncc24)Nc2ccnc(n2)-c2cnn(C)c2OCC[C@@H]3C)c1
Result: 6.00 to 7.00

Problem: Next up: CC1CCOc2c(cnn2C)-c2nccc(n2)Nc2cc3c(cn2)c(-c2cnn(C4CC4)c2)nn31 (stereo not shown)
Result: 6.00 to 7.00

Problem: Next up: CC(C)N1CCN(Cc2csc(-c3nn4c5cc(ncc35)Nc3ccnc(n3)-c3cnn(C)c3OCC[C@@H]4C)n2)CC1
Result: ≤ 6.00

Problem: Next up: C[C@H]1CCOc2c(cnn2C)-c2nccc(n2)Nc2cc3c(cn2)c(N2CC[C@H](N(C)CCCF)C2)nn31
Result: 6.00 to 7.00
